- TEST_SUMMARY: qHTS for Inhibitors of human tyrosyl-DNA phosphodiesterase 1 (TDP1): qHTS in cells in presence of CPT; also: nearly all actives have a fitted effect of over 55% in size
- TEST_CONDITIONS: chicken DT40 Tdp1-/-;hTDP1 cells + 20 nM CPT, ATP luminescence, 48 h; series mostly up to 46.2 µM
Hit rate of the full screen: of about 420,000 compounds, about 50,000 (12%) were called active. Not shown: some 26% with an inconclusive outcome. Calls follow the shape of the dose curve; as a rule, active = well fitted inhibition curve with a large enough effect; inconclusive = small, poorly fitted or top-dose-only effect; inactive = flat fitted curve, though single readings scatter. The list comes from a sample in which actives are over-represented; it also holds close analogues and randomly drawn compounds.
Labels: active, inactive

[
  {
    "COMPOUND": "O=C1Cc2cc(S(=O)(=O)Nc3ccc(OC(F)(F)F)cc3)cc3c2N1CCC3",
    "ASSIGNED_CLASS": "active"
  },
  {
    "COMPOUND": "CCOC(=O)CC(=O)CSc1nc(-c2ccccc2)cc(-c2ccc(Cl)cc2)c1C#N",
    "ASSIGNED_CLASS": "inactive"
  },
  {
    "COMPOUND": "CC1(C)[C@@H]2CC[C@@]1(C)[C@H](OC(=O)CSC#N)C2",
    "ASSIGNED_CLASS": "inactive"
  },
  {
    "COMPOUND": "O=C(O)CCn1c(Cc2ccccc2)nc2ccccc21",
    "ASSIGNED_CLASS": "inactive"
  },
  {
    "COMPOUND": "CN(C)CCN1CCN(c2cc(-c3cccc(Cl)c3)nc3ccnn23)CC1",
    "ASSIGNED_CLASS": "inactive"
  },
  {
    "COMPOUND": "CCn1cc(/C=C(\\NC(=O)c2cc(OC)c(OC)c(OC)c2)C(=O)N2CCN(C)CC2)c2ccccc21",
    "ASSIGNED_CLASS": "inactive"
  },
  {
    "COMPOUND": "COC(=O)C1=C(C)N=C2SC(C)C(=O)N2C1/C=C/c1ccccc1 (stereo unspecified)",
    "ASSIGNED_CLASS": "inactive"
  },
  {
    "COMPOUND": "O=C(CC1Oc2ccccc2NC1=O)NCCCN1CCN(Cc2ccccc2)CC1 (stereo unspecified)",
    "ASSIGNED_CLASS": "inactive"
  },
  {
    "COMPOUND": "COc1ccccc1CNc1cc(-c2ccccc2CN(C)C)ncn1",
    "ASSIGNED_CLASS": "inactive"
  },
  {
    "COMPOUND": "CCSc1nnc(NC(=O)c2cc(=O)c3cc(C)c(C)cc3o2)s1",
    "ASSIGNED_CLASS": "inactive"
  },
  {
    "COMPOUND": "OC1CSc2nc3ccccc3n2C1 (stereo unspecified)",
    "ASSIGNED_CLASS": "inactive"
  },
  {
    "COMPOUND": "FC(F)(F)c1ccccc1-c1cc(NCc2ccccc2)ncn1",
    "ASSIGNED_CLASS": "active"
  },
  {
    "COMPOUND": "COc1cc(OC)cc(-c2nc3nc(C)c(CCC(=O)Nc4ccc(C)cc4)c(C)n3n2)c1",
    "ASSIGNED_CLASS": "inactive"
  },
  {
    "COMPOUND": "CC1=C(C(=O)N2CCOCC2)CC(CC(=O)NCc2ccco2)C(=O)N1Cc1ccc(F)cc1 (stereo unspecified)",
    "ASSIGNED_CLASS": "inactive"
  },
  {
    "COMPOUND": "CC1CN(C(=O)CCC(=O)NCc2cccnc2)c2ccccc2O1 (stereo unspecified)",
    "ASSIGNED_CLASS": "inactive"
  },
  {
    "COMPOUND": "CC1CN(C(=O)CCC(=O)NCCCN2CCC(Cc3ccccc3)CC2)c2cc(Cl)ccc2O1 (stereo unspecified)",
    "ASSIGNED_CLASS": "active"
  },
  {
    "COMPOUND": "Cc1cccc(N2C(=O)N3[C@H](c4ccc(F)cc4)[C@@H]4C(=O)N(C5CCCCC5)C(=O)[C@@H]4[C@]3(Cc3ccccc3)C2=O)c1",
    "ASSIGNED_CLASS": "inactive"
  },
  {
    "COMPOUND": "Nn1c(SCC(=O)NC2CCCC2)nnc1-c1ccccc1F",
    "ASSIGNED_CLASS": "inactive"
  },
  {
    "COMPOUND": "O=C(c1cccc(Cl)c1)N1CCN(CCc2ccncc2)CC1",
    "ASSIGNED_CLASS": "inactive"
  },
  {
    "COMPOUND": "CCN(c1ncnc2c1cnn2-c1ccc(C)cc1)C1CCCCC1",
    "ASSIGNED_CLASS": "inactive"
  },
  {
    "COMPOUND": "C#Cc1cc(N2CCN(C(=O)c3ccoc3)CC2)n2nc(-c3cccc(Cl)c3)cc2n1",
    "ASSIGNED_CLASS": "active"
  }
]
